Recorded values, source ChEMBL document CHEMBL4043299.

# ASSAY_COMMENT: Plasma concentration in rat at 3 mg/kg administered via infusion over 30 mins
# Assay type: ADME, organism-based
# MEASUREMENT_CONDITIONS: iv
MEASURED_PARAMETER: concentration at 0.5 h (ng/mL)
Numbers only, in ng/mL.

State the recorded concentration at 0.5 h for this entry: N#CC1(NC(=O)[C@@H]2Cc3ccc(c(Cl)c3)OCCCCOc3cc(C(F)(F)F)ccc3C(=O)N2)CC1
404

----------
The following are reported Ki results, target or system Rhodesain (Trypanosoma brucei rhodesiense, UniProt Q95PM0).

What value of Ki has been reported for the following compound? N#CC1(NC(=O)[C@@H]2Cc3ccc(c(I)c3)OC/C=C/COc3cc(C(F)(F)F)ccc3C(=O)N2)CC1 (mixture of isomers)
8.7 nM

Batch lookup, Ki per entry.
1. CC(C)(C)c1cc2nn1CC/C=C/COc1ccc(cc1Cl)C[C@@H](C(=O)NC1(C#N)CC1)NC2=O
2. N#CC1(NC(=O)[C@@H]2Cc3ccc(c(Cl)c3)OC/C=C/COc3ccc(-c4ccc(F)cc4)cc3C(=O)N2)CC1 (mixture of isomers)
3. N#CC1(NC(=O)[C@@H]2Cc3ccc(c(-c4cccnc4)c3)OCCCCOc3cc(C(F)(F)F)ccc3C(=O)N2)CC1

["18 nM", "2 nM", "751 nM"]

Please look at the items below and tell me Ki for each one, in order.
1. N#CC1(NC(=O)[C@@H]2Cc3ccc(c(-c4cncnc4)c3)OCCCCOc3cc(C(F)(F)F)ccc3C(=O)N2)CC1
2. N#CC1(NC(=O)[C@@H]2Cc3ccc(c(Cl)c3)OC/C=C/CCn3nc(cc3-c3ccccc3)C(=O)N2)CC1
3. N#CC1(NC(=O)[C@@H]2Cc3ccc(c(Cl)c3)OC/C=C/COc3cc4ccccc4cc3C(=O)N2)CC1 (mixture of isomers)
4. N#CC1(NC(=O)[C@@H]2Cc3ccc(c(Cl)c3)OC/C=C/COc3cc(C(F)(F)F)ccc3C(=O)N2)CC1
5. N#CC1(NC(=O)[C@@H]2Cc3ccc(c(I)c3)OCCCCOc3cc(C(F)(F)F)ccc3C(=O)N2)CC1
6. N#CC1(NC(=O)[C@@H]2Cc3ccc(c(Cl)c3)OC/C=C/Cn3c(=O)c(cc4cc(Cl)ccc43)C(=O)N2)CC1 (mixture of isomers)
7. N#CC1(NC(=O)[C@@H]2Cc3ccc(c(Cl)c3)OC/C=C/Cn3cccc(c3=O)C(=O)N2)CC1
8. N#CC1(NC(=O)[C@@H]2Cc3ccc(c(-c4cc[nH]n4)c3)OCCCCOc3ccccc3C(=O)N2)CC1

1: > 20000 nM; 2: 5.2 nM; 3: 1 nM; 4: 20.2 nM; 5: 57.4 nM; 6: 299 nM; 7: > 20000 nM; 8: 1090 nM

Hi! Can you tell me Ki for each of these compounds?
1. Cn1cc(-c2cc3ccc2OCCCCOc2cc(C(F)(F)F)ccc2C(=O)N[C@H](C(=O)NC2(C#N)CC2)C3)cn1
2. CS(=O)(=O)c1ccc2c(c1)C(=O)N[C@H](C(=O)NC1(C#N)CC1)Cc1ccc(c(Cl)c1)OC[C@H]1O[C@@H]1CO2 (mixture of isomers)
3. N#CC1(NC(=O)[C@@H]2Cc3ccc(c(I)c3)OC/C=C/COc3ccccc3C(=O)N2)CC1

["870 nM", "135 nM", "2.5 nM"]
